test system: DeltatarO mutant; assay: growth inhibition of S. aureus wild type versus tarO mutant, primary screen, teichoic acid synthesis inhibitors, RN4220, OD600 (AID 463173); details: OD600, 18 h, concentration not given here
Hit rate of the full screen: of about 52,000 compounds, about 4,300 (8.3%) were called active. Rule as the data show it: active = survival mostly below about 52% (no sharp cut-off); inactive = mostly above about 56%. Shown is part of a subset that was picked to be rich in actives.
Labels: active, inactive

molecule	assigned-label
CN1CCN(c2oc(-c3ccc(COc4ccccc4)o3)nc2C#N)CC1	active
O=S1(=O)N(Cc2ccccc2)CCCN1Cc1ccc(F)cc1Cl	inactive
O=S1(=O)N(Cc2ccccc2)CCCN1Cc1cccc(Cl)c1	inactive
O=S1(=O)CC2(N3CCOCC3)CCCCC21 (stereo unspecified)	inactive
CN1CCN(Cc2cn3ccccc3n2)CC1	inactive
Cn1cc(/C=C/c2nc3ccccc3c(=O)n2-c2ccccc2)c2ccccc21	inactive
